Biological target: T1, human ST2L extracellular domain with C-terminal His6 tag (human, UniProt Q01638 19-328)
T1 construct: also called huST2L-ECD; ST2L-ECD
T1 sequence: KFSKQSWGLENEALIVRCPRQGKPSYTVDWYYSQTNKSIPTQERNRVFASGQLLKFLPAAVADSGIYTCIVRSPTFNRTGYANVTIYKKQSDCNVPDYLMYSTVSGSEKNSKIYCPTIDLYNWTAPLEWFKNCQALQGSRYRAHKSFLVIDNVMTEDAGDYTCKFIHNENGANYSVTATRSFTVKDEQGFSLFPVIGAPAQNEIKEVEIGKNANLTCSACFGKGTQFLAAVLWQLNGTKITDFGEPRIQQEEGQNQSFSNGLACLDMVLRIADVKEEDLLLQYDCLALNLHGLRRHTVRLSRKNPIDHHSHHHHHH
Assay: RLB ELISA: biotinylated IL-33 on coated huST2L-ECD, antibody titrated
reported.endpoint: IC50 (µg/mL)
Number only, in µg/mL; omit the unit.

# count of solved cases: 3
binder	IC50 / µg/mL
STLM215 (antibody, V domains shown, frameworks VH3-23 / Vk-L6) VH: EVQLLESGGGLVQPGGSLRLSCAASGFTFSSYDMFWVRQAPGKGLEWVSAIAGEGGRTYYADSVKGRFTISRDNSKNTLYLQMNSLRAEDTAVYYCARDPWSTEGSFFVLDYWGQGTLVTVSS VL: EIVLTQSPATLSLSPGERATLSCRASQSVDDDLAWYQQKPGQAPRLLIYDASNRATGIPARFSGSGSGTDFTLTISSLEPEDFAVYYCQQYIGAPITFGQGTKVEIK	0.29
STLM207 (antibody, V domains shown, frameworks VH3-23 / Vk-L6) VH: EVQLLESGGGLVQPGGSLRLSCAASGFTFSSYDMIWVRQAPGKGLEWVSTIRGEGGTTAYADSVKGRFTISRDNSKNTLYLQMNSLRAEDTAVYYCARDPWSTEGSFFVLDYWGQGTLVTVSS VL: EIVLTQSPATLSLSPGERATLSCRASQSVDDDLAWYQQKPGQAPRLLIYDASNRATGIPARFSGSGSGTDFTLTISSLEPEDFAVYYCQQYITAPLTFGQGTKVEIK	0.36
STLM231 (antibody, V domains shown, VH STLH201 + VL STLL273; also called S1LM231) VH: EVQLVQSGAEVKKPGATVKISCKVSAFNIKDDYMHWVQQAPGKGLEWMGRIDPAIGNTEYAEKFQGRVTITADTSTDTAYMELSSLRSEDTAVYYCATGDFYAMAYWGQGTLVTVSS VL: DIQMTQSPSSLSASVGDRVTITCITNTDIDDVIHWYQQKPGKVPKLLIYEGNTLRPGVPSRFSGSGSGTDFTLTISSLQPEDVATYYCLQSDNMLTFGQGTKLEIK	0.26

Ask: I am curious: what IC50 value has been reported for STLM228 (antibody, V domains shown, VH STLH201 + VL STLL276) VH: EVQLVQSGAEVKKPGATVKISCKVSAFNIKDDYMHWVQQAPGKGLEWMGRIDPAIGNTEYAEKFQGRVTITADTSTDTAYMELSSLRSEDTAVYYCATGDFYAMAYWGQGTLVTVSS VL: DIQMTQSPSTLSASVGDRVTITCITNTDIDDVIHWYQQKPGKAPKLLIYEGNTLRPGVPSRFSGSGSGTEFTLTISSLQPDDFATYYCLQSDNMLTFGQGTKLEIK ?
Reply: 0.2

Ask: I am curious: what IC50 value has been reported for STLM212 (antibody, V domains shown, frameworks VH3-23 / Vk-L6) VH: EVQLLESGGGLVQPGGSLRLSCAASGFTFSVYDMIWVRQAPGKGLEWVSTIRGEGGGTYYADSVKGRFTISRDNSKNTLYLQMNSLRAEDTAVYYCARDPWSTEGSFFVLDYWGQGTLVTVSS VL: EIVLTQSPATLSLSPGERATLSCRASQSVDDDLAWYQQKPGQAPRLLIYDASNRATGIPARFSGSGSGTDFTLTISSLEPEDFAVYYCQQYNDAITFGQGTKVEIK ?
Reply: 0.33
